From: patent US20090035317A1

- Tested on: biotinylated VEGF
- Sequence (P15692 207-320 limits assumed): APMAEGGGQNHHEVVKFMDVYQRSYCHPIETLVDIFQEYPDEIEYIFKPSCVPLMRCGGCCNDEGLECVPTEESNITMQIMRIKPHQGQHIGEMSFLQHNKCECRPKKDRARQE
- experiment.description: First order dissociation rate constants (koff) of cell-surface displayed peptides, flow cytometry
- Type: binding
- reported.conditions: 37° C.; peptide displayed on bacterial cell surface
Everything with 37° C. koff lower than 0.0007 s⁻¹ is Not satisfied; everything else, including exactly 0.0007 s⁻¹, is Satisfied.

1. SSKCGRWGETPCLAEGGGSGGGNFGYGKWEWDYGKWLEKVG [Clone L3.F5A.01]	Not satisfied
2. SKLKTLLWQQGGGSGGGNFGYGKWEWDYGKWLEKV [Clone L3.F6.02, SKLKTLLWQQ-GGGSGGG-NFGYGKWEWDYGKWLEKV]	Satisfied
3. SYVLKEWSVPSWGKPGGGSGGGNFGYGKWEWDYGKWLEKV [Clone L3.F6.01]	Not satisfied
4. VTSRYEMREDGSWKKGGGSGGGNFGYGKWEWDYGKWLEKVG [Clone L3.F5A.02]	Satisfied
5. AKRSSYSMWGAMPGGGSGGGNFGYGKWEWDYGKWLEKV [Clone L3.F5A.03, AKRSSYSMWGAMP-GGGSGGG-NFGYGKWEWDYGKWLEKV]	Not satisfied
6. CPVQTMWDWECMRAFIEG [Clone L2.F3B.08]	Satisfied
7. NFGYGKWEWDYGKWLEKVG [Clone L2.F4.04]	Satisfied
